# System: M14
# Experiment Summary: NCI tumour cell line growth inhibition, 48 h
Active and inactive are the calls of the source. Cut-off read from the data, not from the text of the source: active = GI50 up to about 1.1 µM and inactive = higher.
Readout: GI50

Entry Cc1nc(NC(=S)NC(=O)c2ccc(Cl)c(Cl)c2)sc1C(=O)/C=C/c1ccccc1[N+](=O)[O-] , system M14: what GI50 was measured?
23.8 µM (inactive)

###

# System: UO-31
# Experiment Summary: NCI tumour cell line growth inhibition, 48 h
The source made the active and inactive calls. No stated cut-off is given here; in the data, active = GI50 up to about 1.1 µM and inactive = higher.
Readout: GI50

// known answers, use as guide
| Compound | GI50 |
| --- | --- |
| CCOC(=O)CNC(SC)=C(C#N)C#N | 36.7 µM (inactive) |
| CC1=C(C(=O)NCCCN(CCO)CCO)CC(C(=O)NCCCN(CCO)CCO)=C(C)N1 | 93.5 µM (inactive) |
| COc1cccc(Nc2nc(NNC(=O)Cc3ccccc3)nc(NNC(=O)c3ccncc3)n2)c1 | 6.32 µM (inactive) |
| CCOC(=O)[C@@H](NC(=O)OC(C)(C)C)[C@@H](O)C(=O)OCC | > 100 µM (inactive) |
| COC(=O)c1scc(N)c1-n1ccc(=O)[nH]c1=O | > 100 µM (inactive) |

For COc1cccc(C2c3cc4c(cc3OC(O)(CO)C2C(=O)O)OCO4)c1.COc1cccc(C2c3cc4c(cc3OC3(O)COC(=O)C23)OCO4)c1 (centres undefined) , what is its reported GI50?
64.3 µM (inactive)

For CC[C@H](C)[C@H](NC(=O)N(CCC#N)CCN(CCN(C(=O)N[C@@H](Cc1ccccc1)C(=O)OC)c1ccccc1)C(=O)N[C@H](C(=O)OC)C(C)C)C(=O)OC , what is its reported GI50?
18.1 µM (inactive)

For CCCCCCCCCCCCCCCCOC[C@@H](COC(c1ccccc1)(c1ccccc1)c1ccccc1)O[PH](=S)OC (some centres undefined) , what is its reported GI50?
16.4 µM (inactive)

For N#CC12CC3=C(N=C1NC1=C(CCc4ccccc41)C2)c1ccccc1CC3 (centres undefined) , what is its reported GI50?
3.45 µM (inactive)

###

# Tested on: T47D
# Experiment Summary: NCI tumour cell line growth inhibition, 48 h
Calls of active or inactive are those of the source. No stated cut-off is given here; in the data, active = GI50 up to about 1.1 µM and inactive = higher.
Readout: GI50

// known answers, use as guide
| Molecule | GI50 |
| --- | --- |
| N=C(N)N/N=C/c1c(-c2cccc([N+](=O)[O-])c2)nc2n1CCS2 | 8.02 µM (inactive) |
| CNC(=O)OCCN1c2ccccc2Sc2ccccc21 | > 100 µM (inactive) |
| O=[N+]([O-])/C(C(Cl)=C(Cl)Cl)=C1\NCCO1 | 59.4 µM (inactive) |
| CC(C)(C)[Si](C)(C)OCC1OC(n2ccc(N)nc2=O)C(O[Si](C)(C)C(C)(C)C)C1O[Si](C)(C)C(C)(C)C (stereo not given) | 2.7 µM (inactive) |
| COc1cc(O)c(C(=O)/C=C/c2ccc(O)cc2)cc1Oc1ccc(/C=C/C(=O)c2ccc(O)cc2O)cc1 | 15.3 µM (inactive) |
| Cc1nc(Nc2ccc(Cl)c(Cl)c2)sc1C(/C=C/c1ccc2c(c1)OCO2)=N/Nc1ccc([N+](=O)[O-])cc1[N+](=O)[O-] | > 100 µM (inactive) |
| O=S(=O)(O)c1c(Cl)c(Cl)c(O)c2ncccc12 | 7.08 µM (inactive) |
| COc1ccc2c(c1)CCc1cc(C(N)=O)c3nnnn3c1-2 | 25.2 µM (inactive) |
| Oc1[nH]c(Nc2cc(Cl)cc(Cl)c2)nc2ncnc1-2 | > 75 µM (inactive) |

With those in mind, consider the next molecule.
For C/C(=N\O)c1cccc(Nc2nc3ccccc3c3occc23)c1 , what is its reported GI50?
7.73 µM (inactive)

Ref: ChEMBL document CHEMBL1201862
